Reported Emax values are given for each entry in this list.
# System tested: human GLP1R (hGLP1R) (Homo sapiens)
# Sequence (P43220 24-463): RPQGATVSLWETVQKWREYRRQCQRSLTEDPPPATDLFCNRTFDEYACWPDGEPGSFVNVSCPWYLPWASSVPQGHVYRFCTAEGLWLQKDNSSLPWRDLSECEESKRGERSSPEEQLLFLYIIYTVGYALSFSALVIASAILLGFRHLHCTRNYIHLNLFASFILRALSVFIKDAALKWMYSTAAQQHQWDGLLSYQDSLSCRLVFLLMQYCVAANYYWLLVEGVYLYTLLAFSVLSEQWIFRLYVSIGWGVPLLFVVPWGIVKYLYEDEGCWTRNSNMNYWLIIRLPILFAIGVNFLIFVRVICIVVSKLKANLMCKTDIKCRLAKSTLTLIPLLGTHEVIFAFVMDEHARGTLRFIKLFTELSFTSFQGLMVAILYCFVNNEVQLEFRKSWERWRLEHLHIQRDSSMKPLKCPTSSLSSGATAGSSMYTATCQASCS
# Protocol: Human GLP1R β-arrestin recruitment assay (PathHunter)
# Type: cell-based
# Parameters: insert synthesized by GeneArt 93-0164 (CHO-K1-EA parental cells); 93-0491 (pCMV PK vector bundle)
# Experimental parameters: relative to GLP1(7-36); CHO-hGLP1R-β-arrestin cells; read-out: Beta-Arrestin assay Emax (%)
# number only, unit % dropped from output

Cc1c(-c2coc(C(=O)O)n2)nc(CN2CCC(c3cccc4c3O[C@@](C)(c3ccc(Cl)cc3F)O4)CC2)n1C[C@@H]1CCO1 ... 16

Q: # get_value(readout= Emax, system= human GLP1R (hGLP1R) (Homo sapiens)) for Cc1cc(-c2nc(CN3CCC(c4cccc5c4O[C@@](C)(c4ccc(Cl)cc4F)O5)CC3)n(C[C@@H]3CCO3)c2C)oc1C(=O)O
A: 7

Q: Subsequent entry: Cc1c(-c2cnc(C(=O)O)o2)nc(CN2CCC(c3cccc4c3O[C@@](C)(c3ccc(Cl)cc3F)O4)CC2)n1C[C@@H]1CCO1
A: 11
